B1: glmS ribozyme (parent)
chain: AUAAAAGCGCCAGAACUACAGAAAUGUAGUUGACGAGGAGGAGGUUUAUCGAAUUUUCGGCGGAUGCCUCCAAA

Variants of: B1
test.description: self-cleavage kobs at 10000 uM GlcN6P; higher = faster cleavage; RNA array
measurement.conditions: with glucosamine-6-phosphate
This sample holds only a part of the variants without activity.
In this section, each of the variants is paired with its reported self-cleavage kobs at 10000 uM GlcN6P.
Just the number in s⁻¹, nothing appended.

(Q) So what's the measured self-cleavage kobs at 10000 uM GlcN6P for this one? A6G C8G A33G A48U C58U A64U C70A
(A) 0.000104

(Q) Entry to check: G60A C70U
(A) 3.02e-05

(Q) Entry to check: G37A A53G
(A) 0.00615

(Q) Entry to check: C50G U65C C67U
(A) 9.96e-05

(Q) Entry to check: A15U U31G C71U
(A) 0.000517

(Q) Entry to check: A52U A53U
(A) 0.000148

(Q) Entry to check: A15C C70A
(A) 4.95e-05

(Q) Entry to check: U55G U65A
(A) 0.00388

(Q) Entry to check: U57A C58U
(A) 2.39e-05

(Q) Entry to check: A14C A52U
(A) 7.28e-05

Here is another variant to look at.
(Q) So what's the measured self-cleavage kobs at 10000 uM GlcN6P for this one? G13A U55C
(A) 0.000492
